Data credit: patent US20120245137A1

What IC50 was measured for each of the following?
# EXPERIMENTAL_SYSTEM: CAv1.2 (Homo sapiens)
# PROTOCOL_DESCRIPTION: FLIPR data, CAv1.2 channel blocking (Table 6)
# Assay type: cell-based
# CONDITION_LABEL: inactivated state, read-out: CAv1.2 IC50 Inact.
# value in µM; strip the unit string

Fill in: IC50 of CC(C)([C@H]1C[C@@H](NC(=O)c2ccc(C(F)(F)F)cc2S(C)(=O)=O)C1)S(=O)(=O)c1cccc(OC(F)(F)F)c1 is ___
9.25

Fill in: IC50 of CC(C)([C@H]1C[C@H](NS(=O)(=O)c2ccc(OC(F)(F)F)cc2)C1)S(=O)(=O)c1cc(F)cc(C(F)(F)F)c1 is ___
2.93

Fill in: IC50 of CC(C)([C@H]1C[C@@H](CNC(=O)c2ccnc(C(F)(F)F)n2)C1)S(=O)(=O)c1cccc(C(F)(F)F)c1 is ___
6.11

Fill in: IC50 of CC(C)S(=O)(=O)c1cc(C(F)(F)F)cnc1C(=O)N[C@H]1C[C@H](CC(C)(C)S(=O)(=O)c2cccc(C(F)(F)F)c2)C1 is ___
6.54

Fill in: IC50 of CC(C)([C@H]1C[C@@H](NS(=O)(=O)c2ccc(F)c(C(F)(F)F)c2)C1)S(=O)(=O)c1cccc(C(F)(F)F)c1 is ___
5.32

Fill in: IC50 of CC(C)(C1CC(CNC(=O)c2cnc(C(F)(F)F)nc2)C1)S(=O)(=O)c1cccc(C(F)(F)F)c1 (stereo not shown) is ___
2.81

Fill in: IC50 of CC(C)([C@H]1C[C@H](NS(=O)(=O)c2ccc(C(F)(F)F)cc2)C1)S(=O)(=O)c1cccc(C(F)(F)F)c1 is ___
2.98

Fill in: IC50 of O=C(NC[C@H]1C[C@H](S(=O)(=O)c2cccc(OC(F)(F)F)c2)C1)c1ccc(C(F)(F)F)cc1 is ___
2.22

Fill in: IC50 of CC(C)(C1CC(CNC(=O)c2cc(C(F)(F)F)n[nH]2)C1)S(=O)(=O)c1cccc(C(F)(F)F)c1 (stereo not shown) [Compound 682] is ___
2.16

Fill in: IC50 of CC(C)(C1CC(CNC(=O)c2ccc(Cl)c(OC(F)(F)F)c2)C1)S(=O)(=O)c1cccc(C(F)(F)F)c1 (stereo not shown) is ___
0.24

Fill in: IC50 of O=C(NC[C@H]1C[C@H](S(=O)(=O)c2cc(F)cc(C(F)(F)F)c2)C1)c1ccc(C(F)(F)F)cc1 is ___
4.83

Fill in: IC50 of CC(C)(C[C@H]1C[C@H](NC(=O)c2ccc(C(F)(F)F)nc2)C1)S(=O)(=O)c1cccc(C(F)(F)F)c1 is ___
4.89

Fill in: IC50 of CC(C)([C@H]1C[C@@H](NC(=O)c2ccc(F)c(Cl)c2)C1)S(=O)(=O)c1cc(F)cc(C(F)(F)F)c1 is ___
1.7

----------
# EXPERIMENTAL_SYSTEM: T-type calcium channel (Homo sapiens, UniProt O95180)
# Sequence (O95180 whole entry): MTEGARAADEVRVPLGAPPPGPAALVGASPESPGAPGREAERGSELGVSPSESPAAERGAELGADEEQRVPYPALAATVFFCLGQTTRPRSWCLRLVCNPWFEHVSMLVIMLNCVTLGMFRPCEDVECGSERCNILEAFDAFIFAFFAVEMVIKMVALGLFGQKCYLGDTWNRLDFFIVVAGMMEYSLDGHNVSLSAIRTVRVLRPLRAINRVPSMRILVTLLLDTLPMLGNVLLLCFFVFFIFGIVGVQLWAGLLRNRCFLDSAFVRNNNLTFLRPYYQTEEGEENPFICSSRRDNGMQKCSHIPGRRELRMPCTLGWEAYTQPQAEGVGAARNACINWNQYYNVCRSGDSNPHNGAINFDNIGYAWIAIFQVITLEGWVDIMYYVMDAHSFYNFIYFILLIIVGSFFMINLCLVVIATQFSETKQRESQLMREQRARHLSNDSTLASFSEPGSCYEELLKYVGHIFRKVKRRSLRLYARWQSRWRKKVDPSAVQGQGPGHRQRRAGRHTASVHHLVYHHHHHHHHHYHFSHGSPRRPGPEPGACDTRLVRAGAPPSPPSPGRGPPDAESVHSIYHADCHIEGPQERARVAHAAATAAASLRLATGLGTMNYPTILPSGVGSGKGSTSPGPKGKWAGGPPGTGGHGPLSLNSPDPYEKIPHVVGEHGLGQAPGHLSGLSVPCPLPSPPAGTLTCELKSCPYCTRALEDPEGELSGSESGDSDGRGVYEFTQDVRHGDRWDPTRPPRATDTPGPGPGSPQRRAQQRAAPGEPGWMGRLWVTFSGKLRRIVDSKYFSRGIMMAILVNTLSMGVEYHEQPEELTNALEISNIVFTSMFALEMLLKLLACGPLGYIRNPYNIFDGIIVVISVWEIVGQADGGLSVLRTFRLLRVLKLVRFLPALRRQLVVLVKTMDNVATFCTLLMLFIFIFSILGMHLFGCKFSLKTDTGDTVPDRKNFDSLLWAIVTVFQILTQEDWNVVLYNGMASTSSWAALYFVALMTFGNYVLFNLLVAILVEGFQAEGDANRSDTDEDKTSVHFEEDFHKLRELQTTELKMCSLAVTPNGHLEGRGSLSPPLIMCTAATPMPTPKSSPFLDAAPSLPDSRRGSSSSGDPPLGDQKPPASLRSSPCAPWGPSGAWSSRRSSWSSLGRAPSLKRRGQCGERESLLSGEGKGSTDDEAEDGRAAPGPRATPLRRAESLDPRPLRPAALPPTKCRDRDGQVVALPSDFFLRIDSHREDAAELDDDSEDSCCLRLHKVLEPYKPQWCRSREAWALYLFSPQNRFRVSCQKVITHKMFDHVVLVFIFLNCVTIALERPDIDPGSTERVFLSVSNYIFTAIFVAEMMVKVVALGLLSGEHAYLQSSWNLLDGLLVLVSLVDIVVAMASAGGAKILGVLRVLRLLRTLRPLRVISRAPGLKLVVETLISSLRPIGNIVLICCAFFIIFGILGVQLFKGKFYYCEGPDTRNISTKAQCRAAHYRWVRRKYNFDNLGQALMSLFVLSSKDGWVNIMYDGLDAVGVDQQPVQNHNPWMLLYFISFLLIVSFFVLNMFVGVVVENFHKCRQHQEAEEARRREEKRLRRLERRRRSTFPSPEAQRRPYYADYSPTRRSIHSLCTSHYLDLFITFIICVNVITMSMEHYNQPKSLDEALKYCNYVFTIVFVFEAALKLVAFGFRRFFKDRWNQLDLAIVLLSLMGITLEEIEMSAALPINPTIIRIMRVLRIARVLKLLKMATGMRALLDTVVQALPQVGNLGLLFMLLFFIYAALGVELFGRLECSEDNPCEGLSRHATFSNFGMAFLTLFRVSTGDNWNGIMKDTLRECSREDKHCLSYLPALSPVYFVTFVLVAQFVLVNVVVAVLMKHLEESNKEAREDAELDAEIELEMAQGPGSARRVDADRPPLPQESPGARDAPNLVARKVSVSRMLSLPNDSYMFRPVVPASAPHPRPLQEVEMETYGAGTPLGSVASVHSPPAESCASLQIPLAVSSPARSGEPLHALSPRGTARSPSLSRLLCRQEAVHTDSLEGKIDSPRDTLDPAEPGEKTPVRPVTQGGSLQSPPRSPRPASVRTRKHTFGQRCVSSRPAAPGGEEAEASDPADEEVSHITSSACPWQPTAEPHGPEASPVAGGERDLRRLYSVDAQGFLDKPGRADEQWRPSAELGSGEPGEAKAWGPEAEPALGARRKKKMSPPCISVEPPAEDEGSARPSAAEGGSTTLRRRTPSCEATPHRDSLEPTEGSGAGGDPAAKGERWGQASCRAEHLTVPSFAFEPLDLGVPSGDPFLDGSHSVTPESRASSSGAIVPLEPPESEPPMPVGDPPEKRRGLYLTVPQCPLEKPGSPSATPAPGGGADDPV
# PROTOCOL_DESCRIPTION: T-type channel blocking, FLIPR data (Table 6)
# Assay type: cell-based
# CONDITION_LABEL: CAv3.2, ratio closed/inactivated IC50
OBSERVABLE: CAv3.2 IC50 Ratio closed/inact.
Number, no unit, nothing else.

Field: CAv3.2 IC50 Ratio closed/inact. (T-type calcium channel (Homo sapiens, UniProt O95180)). Entry: CC(C)(C[C@H]1C[C@@H](NC(=O)CC2(N)CCCCC2)C1)S(=O)(=O)c1cccc(C(F)(F)F)c1
1

Field: CAv3.2 IC50 Ratio closed/inact. (T-type calcium channel (Homo sapiens, UniProt O95180)). Entry: O=C(NC[C@H]1C[C@H](S(=O)(=O)c2cc(F)cc(C(F)(F)F)c2)C1)c1ccc(C(F)(F)F)cc1
3

Field: CAv3.2 IC50 Ratio closed/inact. (T-type calcium channel (Homo sapiens, UniProt O95180)). Entry: CS(=O)(=O)c1cc(Cl)ccc1C(=O)NC[C@H]1C[C@H](S(=O)(=O)c2cc(F)cc(C(F)(F)F)c2)C1
1.3

Field: CAv3.2 IC50 Ratio closed/inact. (T-type calcium channel (Homo sapiens, UniProt O95180)). Entry: CC(C)([C@H]1C[C@@H](NC(=O)c2ccc(C(F)(F)F)nc2)C1)S(=O)(=O)c1cccc(C(F)(F)F)c1
1

Field: CAv3.2 IC50 Ratio closed/inact. (T-type calcium channel (Homo sapiens, UniProt O95180)). Entry: CC(C)([C@H]1C[C@@H](NS(=O)(=O)c2ccc(OC(F)(F)F)cc2)C1)S(=O)(=O)c1cccc(C(F)(F)F)c1
1.7

Field: CAv3.2 IC50 Ratio closed/inact. (T-type calcium channel (Homo sapiens, UniProt O95180)). Entry: CC(C)([C@H]1C[C@H](NC(=O)c2ccc(C(F)(F)F)cc2S(C)(=O)=O)C1)S(=O)(=O)c1cccc(OC(F)(F)F)c1
0.8

Field: CAv3.2 IC50 Ratio closed/inact. (T-type calcium channel (Homo sapiens, UniProt O95180)). Entry: O=C(NC[C@H]1C[C@H](S(=O)(=O)c2cccc(C(F)(F)F)c2)C1)c1ccc(C(F)(F)F)nc1
1

Field: CAv3.2 IC50 Ratio closed/inact. (T-type calcium channel (Homo sapiens, UniProt O95180)). Entry: CC(C)([C@H]1C[C@@H](NS(=O)(=O)c2ccc(C(F)(F)F)cc2Cl)C1)S(=O)(=O)c1cccc(C(F)(F)F)c1
1.7

Field: CAv3.2 IC50 Ratio closed/inact. (T-type calcium channel (Homo sapiens, UniProt O95180)). Entry: N[C@@H]1CCCC[C@H]1C(=O)NC[C@H]1C[C@H](S(=O)(=O)c2cccc(OC(F)(F)F)c2)C1
1

Field: CAv3.2 IC50 Ratio closed/inact. (T-type calcium channel (Homo sapiens, UniProt O95180)). Entry: CC(C)(C[C@H]1C[C@@H](NC(=O)c2ccc(OCC(F)(F)F)nc2)C1)S(=O)(=O)c1cccc(C(F)(F)F)c1
4

Field: CAv3.2 IC50 Ratio closed/inact. (T-type calcium channel (Homo sapiens, UniProt O95180)). Entry: CC(C)([C@H]1C[C@@H](Nc2ccnc(C(F)(F)F)n2)C1)S(=O)(=O)c1cccc(OC(F)(F)F)c1
1.4
